Listed here are compounds together with their documented pIC50.
Target Of Assay: norepinephrine transporter (NET) (Rattus norvegicus, UniProt Q63380)
Sequence (Q63380 1-617): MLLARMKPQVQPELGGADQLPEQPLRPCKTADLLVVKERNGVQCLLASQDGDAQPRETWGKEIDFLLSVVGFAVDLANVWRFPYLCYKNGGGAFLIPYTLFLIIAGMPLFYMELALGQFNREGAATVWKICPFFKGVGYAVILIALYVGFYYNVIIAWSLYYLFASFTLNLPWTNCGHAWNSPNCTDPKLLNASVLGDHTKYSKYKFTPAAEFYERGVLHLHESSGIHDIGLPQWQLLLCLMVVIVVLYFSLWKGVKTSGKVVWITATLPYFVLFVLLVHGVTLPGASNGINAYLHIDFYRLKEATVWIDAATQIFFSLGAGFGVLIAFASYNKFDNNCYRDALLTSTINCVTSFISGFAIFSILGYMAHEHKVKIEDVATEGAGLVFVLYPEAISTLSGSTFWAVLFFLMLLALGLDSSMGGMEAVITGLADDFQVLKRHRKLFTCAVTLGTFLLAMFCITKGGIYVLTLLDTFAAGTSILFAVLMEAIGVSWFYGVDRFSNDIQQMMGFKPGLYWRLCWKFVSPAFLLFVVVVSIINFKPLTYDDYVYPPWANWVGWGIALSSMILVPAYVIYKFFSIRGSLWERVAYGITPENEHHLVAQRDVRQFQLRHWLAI
Test Name: [3H]norepinephrine (NE) uptake inhibition in rat brain synaptosomes
Test Settings: read-out: NET Uptake IC50; mean ± S.D.; n = 3
Experimental: Uptake inhibition assay for the norepinephrine transporter was conducted in rat brain synaptosomes as described elsewhere with minor modifications (Rothman et al., Synapse 39, 32-41 (2001)). […] Transporter activity at NET was assessed using 10 nM [^3H]norepinephrine. […] Nonspecific uptake was measured by incubating in the presence of 10 μM indatraline. […]
Field pIC50 (float): negative decimal logarithm of the concentration in molar.

Here are 5 compounds together with their reported answers.
Compound	Recorded Endpoint	Val
Cc1cc2nccn2cc1-c1nc(NCC(c2ccccc2)c2ccccc2)c2ccccc2n1 [SRI-30827]	pIC50	7.68
c1ccc(C(CNc2nc(-c3ccc4[nH]ccc4c3)nc3ccccc23)c2ccccc2)cc1 [SRI-29155]	pIC50	6.54
c1ccc(C(CNc2nc(-c3cnc4nccn4c3)nc3ccccc23)C2CCCCC2)cc1 (stereo not drawn) [SRI-30517]	pIC50	7.02
CSc1ncc(-c2nc(NCC(c3ccccc3)c3ccccc3)c3ccccc3n2)cn1 [SRI-29338]	pIC50	6.69
Cc1cc(NS(C)(=O)=O)ccc1-c1nc(NCC(c2ccccc2)c2ccccc2)c2ccccc2n1 [Compound 52]	pIC50	6.84

Task: Quick check: pIC50 of c1ccc(C(CNc2nc(-c3ccc4nccn4c3)nc3ccccc23)C2CCCCC2)cc1 (stereo not drawn) [SRI-30513] ?
Result: 6.82

Task: Subsequent entry: c1ccc(C(CNc2nc(-c3ccc4nccn4c3)nc3ccccc23)c2ccccc2)cc1 [SRI-29574]
Result: 7.28

Task: Subsequent entry: c1ccc(C(CNc2nc(-c3cnc4nccn4c3)nc3ccccc23)c2ccncc2)cc1 (stereo not drawn) [SRI-30810]
Result: 7.22

Task: Subsequent entry: Cc1cc2nccn2cc1-c1nc(NCC(O)(c2ccccc2)c2ccccc2)c2ccccc2n1 [SRI-31143]
Result: 7.80

---

Listed here are molecules together with their documented Emax.
Target Of Assay: serotonin transporter (SERT) (Rattus norvegicus (Rat), UniProt P31652)
Sequence (P31652 whole entry): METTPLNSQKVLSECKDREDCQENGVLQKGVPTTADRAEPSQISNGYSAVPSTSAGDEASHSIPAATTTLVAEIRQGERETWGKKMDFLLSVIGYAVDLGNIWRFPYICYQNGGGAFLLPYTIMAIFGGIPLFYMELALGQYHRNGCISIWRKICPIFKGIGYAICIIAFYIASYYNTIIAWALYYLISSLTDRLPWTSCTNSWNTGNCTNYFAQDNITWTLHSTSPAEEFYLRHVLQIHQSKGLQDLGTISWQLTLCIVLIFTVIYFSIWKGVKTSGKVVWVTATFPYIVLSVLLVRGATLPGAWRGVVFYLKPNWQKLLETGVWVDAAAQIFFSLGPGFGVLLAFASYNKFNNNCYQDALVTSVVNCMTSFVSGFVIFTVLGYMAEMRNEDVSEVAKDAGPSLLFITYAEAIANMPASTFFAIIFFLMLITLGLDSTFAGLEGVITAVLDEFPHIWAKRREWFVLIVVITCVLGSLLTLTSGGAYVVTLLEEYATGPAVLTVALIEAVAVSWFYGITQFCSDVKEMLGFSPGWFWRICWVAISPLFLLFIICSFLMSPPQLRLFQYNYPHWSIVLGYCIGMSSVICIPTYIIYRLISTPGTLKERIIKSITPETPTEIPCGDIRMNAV
Test Name: [3H]serotonin (5-HT) uptake inhibition in rat brain synaptosomes
Type: biochemical
Test Settings: mean ± S.D.; n = 3; read-out: SERT Uptake Emax
Your answer is read as %, so omit the unit and give the number.

Here are 10 molecules together with their reported answers.
Molecule	Emax, %
CN(C)c1ncc(-c2nc(NCCC(c3ccccc3)c3ccccc3)c3ccccc3n2)cn1	50
c1ccc(C(CNc2nc(-c3cnc4nccn4c3)nc3ccccc23)c2ccncc2)cc1 (stereo not shown)	51
c1ccc(C(CNc2nc(-c3ccc4nccn4c3)nc3ccccc23)c2ccccc2)cc1	52
c1ccc(C(CNc2nc(-c3ccc4[nH]ccc4c3)nc3ccccc23)c2ccccc2)cc1	54
Cc1cc2nccn2cc1-c1nc(NCC(O)(c2ccccc2)c2ccccc2)c2ccccc2n1	51
c1ccc(C(CNc2nc(-c3ccc4ncnn4c3)nc3ccccc23)c2ccccc2)cc1	35
c1ccc(C(CNc2nc(-c3ccc4nccn4c3)nc3ccccc23)c2ccc[nH]2)cc1 (stereo not shown)	56
c1ccc(C(CCNc2nc(-c3ccc4[nH]ccc4c3)nc3ccccc23)c2ccccc2)cc1	43
CS(=O)(=O)Nc1ccc(-c2nc(NCC(c3ccccc3)c3ccncc3)c3ccccc3n2)cc1 (stereo not shown)	56
c1ccc(C(CCNc2nc(-c3cccnc3)nc3ccccc23)c2ccccc2)cc1	48

Task: Quick check: Emax of `OC(CNc1nc(-c2ccc3[nH]ccc3c2)nc2ccccc12)(c1ccccc1)c1ccccc1` ?
Result: 57

Task: Subsequent entry: `c1ccc(C(CNc2nc(-c3cnc4nccn4c3)nc3ccccc23)c2ccccc2)cc1`
Result: 51

Task: Subsequent entry: `CN(C)c1ncc(-c2nc(NCC(O)(c3ccccc3)c3ccccc3)c3ccccc3n2)cn1`
Result: 51

Task: Subsequent entry: Cc1cc2nccn2cc1-c1nc(NCC(c2ccccc2)c2ccc[nH]2)c2ccccc2n1 (stereo not shown)
Result: 54
